Recorded measurements of TGI, one per entry
- Test system: T-47D breast
- Method Notes: NCI tumour cell line growth inhibition, 48 h
Measured Parameter: TGI (µM)

[[record]]
compound = "CC(C)(C)N=C1C(=O)C2(C)CCC1C2(C)C (stereo not drawn)"
subject_of_test = "T-47D breast"
censoring_sign = ">"
assay_value = 100

[[record]]
compound = "CC(C)(C)c1cc(C(C)(C)C)c(SC2OC(CO)C(O)C(O)C2O)c(O)c1O (stereo not drawn)"
subject_of_test = "T-47D breast"
censoring_sign = "="
assay_value = 72.4

[[record]]
compound = "Cc1noc(-c2ccc(C(=O)O)[nH]2)c1Br"
subject_of_test = "T-47D breast"
censoring_sign = "="
assay_value = 71.4


====

- System: PC-3 prostate
- Method Notes: NCI tumour cell line growth inhibition, 48 h; in the data active means GI50 below about 0.43 µM; inactive means the rest
Possible outcomes: T for active, F for inactive

[[record]]
molecule = "CN(Cc1cnc2nc(N)nc(N)c2n1)c1c(Cl)cc(C(=O)NC(CCC(=O)O)C(=O)O)cc1Cl (stereo not given)"
subject_of_test = "PC-3 prostate"
answer_label = "T"

[[record]]
molecule = "O=C(O)C(Cc1ccccc1)N1C(=O)/C(=C/C(Cl)=C/c2ccc([N+](=O)[O-])cc2)SC1=S (stereo not given)"
subject_of_test = "PC-3 prostate"
answer_label = "F"

[[record]]
molecule = "CCCC(=O)Nc1cc(/C=C/C(=O)N2C[C@@H]3C[C@]34C2=CC(=O)c2[nH]cc(C)c24)n(C)c1"
subject_of_test = "PC-3 prostate"
answer_label = "T"

[[record]]
molecule = "Cc1nc(C(=O)OCc2ccccc2)cc(OCc2ccccc2)c1C"
subject_of_test = "PC-3 prostate"
answer_label = "F"

[[record]]
molecule = "COc1ccc(C(=O)c2ccccc2)c(O)c1"
subject_of_test = "PC-3 prostate"
answer_label = "F"

[[record]]
molecule = "C/C(=N\\NC(=S)N1CCCC1)c1ccccn1"
subject_of_test = "PC-3 prostate"
answer_label = "T"

[[record]]
molecule = "COc1ccc(/C=C(\\C#N)c2cc(OC)c(OC)c(OC)c2)cc1"
subject_of_test = "PC-3 prostate"
answer_label = "T"

[[record]]
molecule = "CN(C)CCN=c1nc2c(c(N)n1-c1ccccc1)c(=S)n(-c1ccccc1)c(=S)n2-c1ccccc1"
subject_of_test = "PC-3 prostate"
answer_label = "F"

[[record]]
molecule = "C=C(CN1CCN(c2ccccn2)CC1)c1ccc(C(=O)Nc2ccccc2N)cc1"
subject_of_test = "PC-3 prostate"
answer_label = "F"

[[record]]
molecule = "Cn1cc(-c2csc(-c3ccc(Cl)cc3)n2)c2cccnc21"
subject_of_test = "PC-3 prostate"
answer_label = "F"


====

- System: T-47D breast
- Method Notes: NCI tumour cell line growth inhibition, 48 h
Measured Parameter: GI50

[[record]]
mol = "Cc1nc(C(=O)OCc2ccccc2)cc(OCc2ccccc2)c1C"
assay_value = "18.8 µM"

[[record]]
mol = "CSC(=S)NCc1cn(C)c2ccccc12"
assay_value = "29.5 µM"

[[record]]
mol = "S=C(Nc1ccc(-c2nc3ccccc3s2)cc1)Nc1ccc(-c2nc3ccccc3s2)cc1"
assay_value = "18.8 µM"


====

- System: KM12 colon
- Method Notes: NCI tumour cell line growth inhibition, 48 h
Where a SMILES comes first, the peptide text is derived from it. Bridges are numbered along the chain shown (N, C = ends).
Measured Parameter: TGI

[[record]]
compound = "CC1(C)Cc2ccccc2C(C)(Cl)C(=O)N1 (configuration not stated)"
measured_parameter = "TGI"
assay_value = "> 10 µM"

[[record]]
compound = "Cc1cc(NS(=O)(=O)c2ccc(Nc3c4ccccc4nc4c(C(=O)NC(CO)(CO)CO)cccc34)cc2)no1"
measured_parameter = "TGI"
assay_value = "71.4 µM"

[[record]]
compound = "COC(=O)C1CCC(=O)NCCCCC(NC(=O)C(N)CC(=O)O)C(=O)N1 (stereo not drawn) (H-Asp-Lys-Glu-OMe; lactam 2-3; configuration not given here)"
measured_parameter = "TGI"
assay_value = "> 100 µM"

[[record]]
compound = "CC(C)(C)OC(=O)NCCCCCCCCCCCCn1c2c(c3ccccc3c1=O)C(=O)c1ccccc1-2"
measured_parameter = "TGI"
assay_value = "> 100 µM"

[[record]]
compound = "COc1ccc(C(=O)c2ccccc2)c(O)c1"
measured_parameter = "TGI"
assay_value = "> 100 µM"

[[record]]
compound = "COc1ccc(NCn2nc(CCCCCCCCc3nn(CNc4ccc(OC)cc4)c(=S)o3)oc2=S)cc1"
measured_parameter = "TGI"
assay_value = "> 100 µM"

[[record]]
compound = "Cc1c2cc[n+](C)cc2c(C)c2c1[nH]c1ccc(OCC(F)(F)F)cc12"
measured_parameter = "TGI"
assay_value = "> 44.8 µM"

[[record]]
compound = "CCOP(=O)(OCC)C(c1ccccc1)N(C(=O)NC(F)(F)F)c1ccc(C)cc1 (configuration not stated)"
measured_parameter = "TGI"
assay_value = "> 100 µM"

[[record]]
compound = "OC[C@H]1N[C@H](CO)[C@@H](O)[C@H]1O"
measured_parameter = "TGI"
assay_value = "> 100 µM"

[[record]]
compound = "COc1c(NC(C)=O)c2ccccc2c2ccccc12"
measured_parameter = "TGI"
assay_value = "> 100 µM"

[[record]]
compound = "CN(Cc1cnc2nc(N)nc(N)c2n1)c1c(Cl)cc(C(=O)NC(CCC(=O)O)C(=O)O)cc1Cl (configuration not stated)"
measured_parameter = "TGI"
assay_value = "> 100 µM"

[[record]]
compound = "Cc1c(C(=O)O)sc2nc[nH]c(=O)c12"
measured_parameter = "TGI"
assay_value = "> 100 µM"

